# procedure_details: Pharmacokinetics study in rats
# Assay type: in vivo, male Sprague-Dawley (SD) rats
# recorded_conditions: Sprague-Dawley, rat, plasma; oral 3.18 mg/kg, male SD rats
observable: AUC(0-inf) (ng·h/mL)
The reply should contain only the number, in ng·h/mL.

q: Field request: AUC(0-inf) | item: CC1(n2c(=O)[nH]c3ccc(Oc4c(Cl)cc(-n5nc(C#N)c(=O)[nH]c5=O)cc4Cl)cc32)CC1 [Example 14]
a: 190

###

# procedure_details: Tissue distribution in rats
# Assay type: in vivo, male Sprague-Dawley (SD) rats
# recorded_conditions: Sprague-Dawley, rat, heart; IV infusion 2.0 mg/kg, 2 hours post-dose, male SD rats; read-out: tissue concentration in heart
observable: concentration at 2 h (ng/g)
The reply should contain only the number, in ng/g.

q: Field request: concentration at 2 h | item: COc1nc2ccc(Oc3c(Cl)cc(-n4nc(C#N)c(=O)[nH]c4=O)cc3Cl)cc2n1C1(C)CC1 [Example 12]
a: 995

###

# procedure_details: Pharmacokinetics study in rats
# Type: in vivo, male Sprague-Dawley (SD) rats
# recorded_conditions: Sprague-Dawley, rat, plasma; IV infusion 1.09 mg/kg, male SD rats
observable: half-life (min)
The reply should contain only the number, in min.

q: Field request: half-life | item: CC1(n2c(=O)[nH]c3ccc(Oc4c(Cl)cc(-n5nc(C#N)c(=O)[nH]c5=O)cc4Cl)cc32)CC1 [Example 14]
a: 90.6

q: What do we get for COc1nc2ccc(Oc3c(Cl)cc(-n4nc(C#N)c(=O)[nH]c4=O)cc3Cl)cc2n1C1(C)CC1 [Example 12] ?
a: 160

###

# experimental_target: THR-β/RXR-α (Homo sapiens (Human))
# Sequence (P10828 202-461): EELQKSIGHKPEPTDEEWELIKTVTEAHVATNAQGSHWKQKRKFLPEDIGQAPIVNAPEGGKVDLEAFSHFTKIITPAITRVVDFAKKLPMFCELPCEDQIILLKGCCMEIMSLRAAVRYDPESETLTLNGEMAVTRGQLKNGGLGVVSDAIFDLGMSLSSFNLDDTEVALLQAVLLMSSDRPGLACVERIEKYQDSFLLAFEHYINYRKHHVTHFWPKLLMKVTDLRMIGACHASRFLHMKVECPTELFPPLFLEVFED
# Sequence (P19793 225-462 partner): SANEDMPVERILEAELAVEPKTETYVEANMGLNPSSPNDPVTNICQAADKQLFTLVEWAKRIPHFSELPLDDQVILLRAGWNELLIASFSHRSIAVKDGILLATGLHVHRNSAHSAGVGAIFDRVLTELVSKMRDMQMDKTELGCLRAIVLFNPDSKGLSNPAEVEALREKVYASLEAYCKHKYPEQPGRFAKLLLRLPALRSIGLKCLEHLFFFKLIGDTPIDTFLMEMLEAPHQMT
# Sequence (Q15596 679-703 partner): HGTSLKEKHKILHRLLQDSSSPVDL
# procedure_details: THR/RXR heterodimer assay (THR-β/RXR-α)
# Format: biochemical
# recorded_conditions: RXR heterodimer assay; normalized to T3 activity
observable: THRß-Selectivity
Kindly provide the number alone.

Worked examples follow.
N#Cc1nn(-c2cc(Cl)c(Oc3ccc4[nH]c(=O)n(C5(C(F)F)CC5)c4c3)c(Cl)c2)c(=O)[nH]c1=O: 8.2
CC1(n2c(=O)[nH]c3ccc(Oc4c(Cl)cc(-n5nc(C#N)c(=O)[nH]c5=O)cc4Cl)cc32)CC1: 12.0

Consider the additional compound presented here.
q: Field request: THRß-Selectivity | item: COc1nc2ccc(Oc3c(Cl)cc(-n4nc(C#N)c(=O)[nH]c4=O)cc3Cl)cc2n1C(C)(C)C
a: 10.3

###

# procedure_details: Tissue distribution in rats
# Assay type: in vivo, male Sprague-Dawley (SD) rats
# recorded_conditions: Sprague-Dawley, rat, liver; IV infusion 2.16 mg/kg, 2 hours post-dose, male SD rats; read-out: tissue concentration in liver
observable: concentration at 2 h (ng/g)
The reply should contain only the number, in ng/g.

q: Field request: concentration at 2 h | item: CC1(n2c(=O)[nH]c3ccc(Oc4c(Cl)cc(-n5nc(C#N)c(=O)[nH]c5=O)cc4Cl)cc32)CC1
a: 413

###

// reported Vd for each item listed
# procedure_details: Pharmacokinetics study in rats
# Format: in vivo, male Sprague-Dawley (SD) rats
# recorded_conditions: Sprague-Dawley, rat, plasma; IV infusion 1.09 mg/kg, male SD rats; read-out: volume of distribution (Vdss)
Please answer using a numeric value trailed by its unit.

CC1(n2c(=O)[nH]c3ccc(Oc4c(Cl)cc(-n5nc(C#N)c(=O)[nH]c5=O)cc4Cl)cc32)CC1 [Example 14]: 1.28 L/kg

q: Field request: Vd | item: COc1nc2ccc(Oc3c(Cl)cc(-n4nc(C#N)c(=O)[nH]c4=O)cc3Cl)cc2n1C1(C)CC1 [Example 12]
a: 0.638 L/kg

###

# procedure_details: Tissue distribution in rats
# Assay type: in vivo, male Sprague-Dawley (SD) rats
# recorded_conditions: Sprague-Dawley, rat, liver/plasma; IV infusion 2.0 mg/kg, 2 hours post-dose, male SD rats; read-out: tissue/plasma ratio liver/plasma
observable: Kp at 2 h
Kindly provide the number alone.

q: Field request: Kp at 2 h | item: COc1nc2ccc(Oc3c(Cl)cc(-n4nc(C#N)c(=O)[nH]c4=O)cc3Cl)cc2n1C1(C)CC1
a: 5.62

###

# procedure_details: Pharmacokinetics study in rats
# Type: in vivo, male Sprague-Dawley (SD) rats
# recorded_conditions: Sprague-Dawley, rat, plasma; oral 3.0 mg/kg, male SD rats
observable: AUC(0-t) (µg·h/mL)
The reply should contain only the number, in µg·h/mL.

q: Field request: AUC(0-t) | item: COc1nc2ccc(Oc3c(Cl)cc(-n4nc(C#N)c(=O)[nH]c4=O)cc3Cl)cc2n1C1(C)CC1
a: 10.8

###

# procedure_details: Tissue distribution in rats
# Type: in vivo, male Sprague-Dawley (SD) rats
# recorded_conditions: Sprague-Dawley, rat, heart/plasma; IV infusion 2.0 mg/kg, 2 hours post-dose, male SD rats; read-out: tissue/plasma ratio heart/plasma
observable: Kp at 2 h
Kindly provide the number alone.

q: Field request: Kp at 2 h | item: COc1nc2ccc(Oc3c(Cl)cc(-n4nc(C#N)c(=O)[nH]c4=O)cc3Cl)cc2n1C1(C)CC1 [Example 12]
a: 1.65

###

# procedure_details: Tissue distribution in rats
# Assay type: in vivo, male Sprague-Dawley (SD) rats
# recorded_conditions: Sprague-Dawley, rat, plasma; IV infusion 2.16 mg/kg, 2 hours post-dose, male SD rats; read-out: plasma concentration
observable: concentration at 2 h
Please answer using a numeric value trailed by its unit.

q: Field request: concentration at 2 h | item: CC1(n2c(=O)[nH]c3ccc(Oc4c(Cl)cc(-n5nc(C#N)c(=O)[nH]c5=O)cc4Cl)cc32)CC1
a: 15.5 ng/mL

###

# procedure_details: Pharmacokinetics study in rats
# Assay type: in vivo, male Sprague-Dawley (SD) rats
# recorded_conditions: Sprague-Dawley, rat, plasma; IV infusion 1.09 mg/kg, male SD rats
observable: AUC(0-inf) (ng·h/mL)
The reply should contain only the number, in ng·h/mL.

COc1nc2ccc(Oc3c(Cl)cc(-n4nc(C#N)c(=O)[nH]c4=O)cc3Cl)cc2n1C1(C)CC1: 3780

q: Field request: AUC(0-inf) | item: CC1(n2c(=O)[nH]c3ccc(Oc4c(Cl)cc(-n5nc(C#N)c(=O)[nH]c5=O)cc4Cl)cc32)CC1
a: 550

###

# procedure_details: Pharmacokinetics study in rats
# Type: in vivo, male Sprague-Dawley (SD) rats
# recorded_conditions: Sprague-Dawley, rat, plasma; oral 3.0 mg/kg vs IV 1.09 mg/kg, male SD rats
observable: bioavailability (%)
The reply should contain only the number, in %.

q: Field request: bioavailability | item: COc1nc2ccc(Oc3c(Cl)cc(-n4nc(C#N)c(=O)[nH]c4=O)cc3Cl)cc2n1C1(C)CC1 [Example 12]
a: 95.2

###

# experimental_target: THR-α/RXR-α (Homo sapiens (Human), UniProt P10827)
# Sequence (P10827 other isoform, or with tags, fused parts or gaps, one chain of several): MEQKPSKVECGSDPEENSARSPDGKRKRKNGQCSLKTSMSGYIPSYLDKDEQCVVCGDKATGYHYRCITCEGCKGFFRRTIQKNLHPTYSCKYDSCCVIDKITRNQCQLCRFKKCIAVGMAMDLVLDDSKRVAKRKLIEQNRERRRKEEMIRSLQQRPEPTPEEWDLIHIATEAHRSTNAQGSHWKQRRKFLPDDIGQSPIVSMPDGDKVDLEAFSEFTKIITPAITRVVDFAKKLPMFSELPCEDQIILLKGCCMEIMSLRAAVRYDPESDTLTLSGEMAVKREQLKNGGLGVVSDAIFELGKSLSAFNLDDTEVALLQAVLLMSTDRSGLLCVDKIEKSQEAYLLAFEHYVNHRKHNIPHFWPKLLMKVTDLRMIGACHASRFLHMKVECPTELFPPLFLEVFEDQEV
# procedure_details: THR/RXR heterodimer assay (THR-α/RXR-α)
# Format: biochemical
# recorded_conditions: RXR heterodimer assay; read-out: EC50 THRα-het
observable: EC50 (µM)
The reply should contain only the number, in µM.

q: # query: EC50 | item COc1nc2ccc(Oc3c(Cl)cc(NC(=O)c4noc(=O)[nH]4)cc3Cl)cc2n1C1(C(F)(F)F)CC1 | system: THR-α/RXR-α (Homo sapiens (Human), UniProt P10827)
a: 3.23

###

# procedure_details: Pharmacokinetics study in rats
# Type: in vivo, male Sprague-Dawley (SD) rats
# recorded_conditions: Sprague-Dawley, rat, plasma; IV infusion 1.09 mg/kg, male SD rats, mean±SD; read-out: plasma clearance (CL)
observable: clearance (mL/min/kg)
The reply should contain only the number, in mL/min/kg.

COc1nc2ccc(Oc3c(Cl)cc(-n4nc(C#N)c(=O)[nH]c4=O)cc3Cl)cc2n1C1(C)CC1: 4.51

Consider the additional molecule presented here.
q: Field request: clearance | item: CC1(n2c(=O)[nH]c3ccc(Oc4c(Cl)cc(-n5nc(C#N)c(=O)[nH]c5=O)cc4Cl)cc32)CC1
a: 30.3

###

# procedure_details: Tissue distribution in rats
# Type: in vivo, male Sprague-Dawley (SD) rats
# recorded_conditions: Sprague-Dawley, rat, plasma; IV infusion 2.0 mg/kg, 2 hours post-dose, male SD rats; read-out: plasma concentration
observable: concentration at 2 h (ng/mL)
The reply should contain only the number, in ng/mL.

q: Field request: concentration at 2 h | item: COc1nc2ccc(Oc3c(Cl)cc(-n4nc(C#N)c(=O)[nH]c4=O)cc3Cl)cc2n1C1(C)CC1
a: 569

###

# procedure_details: Pharmacokinetics study in rats
# Type: in vivo, male Sprague-Dawley (SD) rats
# recorded_conditions: Sprague-Dawley, rat, plasma; oral 3.0 mg/kg, male SD rats
observable: AUC(0-inf)

q: Field request: AUC(0-inf) | item: COc1nc2ccc(Oc3c(Cl)cc(-n4nc(C#N)c(=O)[nH]c4=O)cc3Cl)cc2n1C1(C)CC1
a: 10800 ng·h/mL
